Data origin, for the record: patent US20090117083A1

Tested on: β-D-galactosidase
Experimental protocol: Glycosidase inhibition: β-D-galactosidase
Assay type: biochemical, Bovine
Measurement context: 1 mg/ml
Quick list: % inhibition, β-galactosidase per entry.
Record the value in %, omitting the unit from your answer.

Record excerpt, results attached:
>  <Compound>
O[C@@H]1[C@@H]2[C@@H](O)[C@H](O)[C@@H](O)CN2C[C@@H]1O [Compound 44, 2-β-hydroxycastanospermine]

>  <System>
β-D-galactosidase

>  <Value measured>
−1

$$$$
>  <Compound>
O[C@@H]1[C@@H]2[C@@H](O)[C@H](O)[C@H](O)CN2C[C@H]1O [Compound 35, 2-α-hydroxy-6-epi-castanospermine]

>  <System>
β-D-galactosidase

>  <Value measured>
−1

$$$$
>  <Compound>
OCC1N[C@H](CO)[C@@H](O)[C@@H]1O (some centres unmarked)

>  <System>
β-D-galactosidase

>  <Value measured>
71

$$$$
>  <Compound>
OCCN1[C@H](CO)[C@@H](O)[C@H](O)[C@H]1CO [N-hydroxyethyl DMDP]

>  <System>
β-D-galactosidase

>  <Value measured>
73

$$$$
>  <Compound>
O[C@@H]1[C@@H]2[C@@H](O)[C@H](O)[C@@H](O)CN2C[C@H]1O [Compound 64, 2-α-hydroxycastanospermine]

>  <System>
β-D-galactosidase

>  <Value measured>
−3

$$$$

Answer with reported % inhibition, β-galactosidase of COc1cc([C@H]2N[C@H](CO)[C@@H](O)[C@@H]2O)ccc1O
18

Output % inhibition, β-galactosidase of OC[C@H]1N[C@H](c2ccc(O)cc2)[C@@H](O)[C@@H]1O
52

Give the measured % inhibition, β-galactosidase for OCCN1C[C@@H](O)[C@H](O)[C@H]1CO
13
